The values you see were collected from patent US20220053796A1.

# Tested on: HMPOS
# assay-info: ATPlite proliferation assay
# Type: cell-based, canine
# particulars: Canis lupus familiaris, 72 h
Structures can show the parent of a compound that is named as a salt.
readout: pIC50
Value format note: pIC50 is -log10 of concentration (mol/L); just state the number.

-- ask State its pIC50: COc1cccc2c1C(=O)c1c(O)c3c(c(O)c1C2=O)C[C@@](O)(C(=O)CO)C[C@@H]3O[C@H]1C[C@H](N)[C@H](O)[C@H](C)O1 [doxorubicin hydrochloride]
-- reply 7.96

----------
# System: D17 cancer cell line
# assay-info: MTT proliferation assay
# Assay type: cell-based, canine
# particulars: Canis lupus familiaris, read-out: chemotherapy IC50
Counter-ions that a name gives are not always drawn.
readout: pIC50
Value format note: pIC50 is -log10 of concentration (mol/L); just state the number.

-- ask State its pIC50: COc1cccc2c1C(=O)c1c(O)c3c(c(O)c1C2=O)C[C@@](O)(C(=O)CO)C[C@@H]3O[C@H]1C[C@H](N)[C@H](O)[C@H](C)O1 [doxorubicin hydrochloride]
-- reply 6.30
